# assayed_target: human DRG VR1 (Homo sapiens, UniProt Q8NER1, I585V/K332R/M315I)
# Construct: The two primers were designed to amplify the entire coding region; CHO is stated only for the VR1A construct
# Sequence (Q8NER1 whole entry M315I/K332R/I585V): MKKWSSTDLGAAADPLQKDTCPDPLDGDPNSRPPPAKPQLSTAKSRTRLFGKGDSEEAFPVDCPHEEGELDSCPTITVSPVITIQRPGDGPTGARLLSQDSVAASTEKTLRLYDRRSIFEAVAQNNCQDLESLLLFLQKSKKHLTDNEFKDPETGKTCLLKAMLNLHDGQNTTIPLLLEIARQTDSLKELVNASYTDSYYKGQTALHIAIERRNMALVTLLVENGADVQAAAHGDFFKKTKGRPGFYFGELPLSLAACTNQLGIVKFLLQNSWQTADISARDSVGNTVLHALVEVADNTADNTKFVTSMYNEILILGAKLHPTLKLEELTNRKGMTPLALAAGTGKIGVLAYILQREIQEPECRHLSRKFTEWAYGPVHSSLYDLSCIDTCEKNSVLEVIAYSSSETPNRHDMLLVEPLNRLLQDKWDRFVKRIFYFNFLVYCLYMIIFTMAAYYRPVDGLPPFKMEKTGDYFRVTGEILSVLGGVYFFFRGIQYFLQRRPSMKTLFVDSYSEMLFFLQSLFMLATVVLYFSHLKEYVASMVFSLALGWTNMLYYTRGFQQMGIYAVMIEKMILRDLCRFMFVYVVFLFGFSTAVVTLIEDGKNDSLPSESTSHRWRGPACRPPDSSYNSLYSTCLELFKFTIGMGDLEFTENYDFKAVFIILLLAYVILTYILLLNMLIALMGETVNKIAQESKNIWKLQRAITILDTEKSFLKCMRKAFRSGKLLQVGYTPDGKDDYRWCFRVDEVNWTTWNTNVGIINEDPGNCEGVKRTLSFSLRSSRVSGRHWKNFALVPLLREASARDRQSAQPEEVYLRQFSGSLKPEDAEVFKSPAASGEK
# test_details: Ca2+ influx assay, stable cell line expressing VR1
measured_endpoint: pEC50
pEC50 field: float, defined as -log10 of concentration (mol/L).

Identify measured pEC50 corresponding to C=C(C)[C@]12C[C@@H](C)[C@@]34O[C@](Cc5ccccc5)(O[C@@H]1[C@@H]3C=C(COC(=O)Cc1ccc(O)c(OC)c1)C[C@]1(O)C(=O)C(C)=C[C@@H]41)O2 8.80
